All figures here come from paper PMC7018803.

Experiment: Plasma ketamine concentrations during intravenous bolus plus continuous infusion
Type: in vivo
Conditions: human, range across regimens
ENDPOINT_NAME: Tmax

Q: // lookup Tmax for CNC1(c2ccccc2Cl)CCCCC1=O (stereo not shown)
A: 2.3 to 2.5 h

====

Test: Plasma ketamine concentrations during intravenous bolus plus continuous infusion
Format: in vivo
Settings: human, during continuous infusion, range of means across regimens
ENDPOINT_NAME: Cmax

Q: Recorded Cmax of CNC1(c2ccccc2Cl)CCCCC1=O (stereo not shown) , please.
A: 168 to 179 ng/mL
